Reported values of melting point for individual entries

Past entries and their recorded results:
{"columns": ["compound", "melting point"],
 "data": [
  ["C[C@H](CCC(=O)N(C)C)[C@H]1CC=C2C3=C(CC[C@@]21C)[C@@]1(C)CC[C@H](O)C(C)(C)[C@@H]1CC3", "192 to 195 °C"],
  ["C[C@@H](CI)CCC[C@@H](C)[C@H]1CC=C2C3=C(CC[C@@]21C)[C@@]1(C)CC[C@H](O)C(C)(C)[C@@H]1CC3", "148 °C"]
]}

May I ask what melting point has been recorded for CC(C)CCC[C@@H](C)[C@H]1[C@@H](O)C[C@H]2C3=CC=C4C(C)(C)[C@@H](O)CC[C@]4(C)[C@H]3CC[C@]12C ?
171 to 173 °C

Which melting point reading was recorded for the compound C[C@@H](CO)CCC[C@@H](C)[C@H]1CC=C2C3=C(CC[C@@]21C)[C@@]1(C)CC[C@H](O)C(C)(C)[C@@H]1CC3 ?
180 to 181 °C

melting point lookup needed for C[C@@H](CCl)CCC[C@@H](C)[C@H]1CC=C2C3=C(CC[C@@]21C)[C@@]1(C)CC[C@H](O)C(C)(C)[C@@H]1CC3 , thanks.
145 to 145.5 °C

// query melting point value for entry CC(C)CCC[C@@H](C)[C@H]1CC=C2C3=C(CC[C@@]21C)[C@@]1(C)CC=CCC1CC3 (stereo partly drawn)
104.7 °C
